Test system: MS2 coat protein
Assay: apparent KD of MS2 coat protein; designed switch direction (-1 OFF switch, 1 ON switch): -1; higher = weaker reporter binding
Settings: Eterna round: R95; input ligand: microRNA oligo, concentration not stated
Reported Property: apparent KD of MS2 coat protein (nM)
Unit nM implied. Number only.

AGUACUAACACGAAAGUGUUAGUACAAUAAGCUUGUGAAACAUGAGGAUCACCCAUGUCCUCAUAUGCUCGUCUUAU [salish99_TOv2_r3_053] (puzzle: Sensor v3, turn-off variant 2); 822
AUUAUUUAAGUCAGGAUAUCGUAUUUAAUUAAAUACGAGAAGGGACAUGAGGAUCACCCAUGUAAUAAAUUUUA [JMFs Solution 1] (puzzle: Brourd's mod of Exclusion 4); 14.2
UAUUAGCAAGUAAGAUCCCACAUGAGGAUCACCCAUGUGCUCGUCUUAUAAGGUACUGUGACGAAAGUCACGGUACC [Sensor 3, v1 - 88] (puzzle: Sensor v3, turn-off variant 1); 1040
GAUUGACAUGAGGAUCACCCAUGUGAGGAUAUCGGCUGGACCGUGUUGGCUUCCGUUUCGAGAAGGCGCAUAGG [Exclusion 1 V44] (puzzle: Exclusion 1); 23.2
UUUAAUUUUUUUUUUUUACAAGCUUUUUGCUCGUCUUAUACAUGAGGAUCACCCAUGUAGGUGAAGGGUAAAUUAUC [JMF 81] (puzzle: Sensor v3, turn-off variant 2); 77.7

# input Can you share its apparent KD of MS2 coat protein? I mean this sequence: CACGAGCUAGGAUAUACAUGAGGAUCACCCAUGUAAGUCAUGCGGUCACAUCUGACAGGUAGAAGGAGCGCGUC [Teaertete] (puzzle: Exclusion 3)
# output 37.5

# input # apparent KD of MS2 coat protein lookup, item AAUAACAGAGGAUAUACUAUUUUAUGUGUUUGUUGUUUUAAACAUGAGGAUCACCCAUGUAGAAGGCUGAUUGA [JMF 74] (puzzle: Exclusion 2)
# output 31.1

# input Tell me the measured apparent KD of MS2 coat protein of UUUUUGUGAGGAUAUGGAAUAUCUUCUAUUUAUUAUUAAUUCCAGAAGGCACAUGAGGAUCACCCAUGUAUUUU [Ex4 - 3 - 35] (puzzle: Exclusion 4) , please.
# output 20.7

# input Tell me the measured apparent KD of MS2 coat protein of GUGAAGUAAGGAUAUACAUGAGGAUCACCCAUGUGUGGGAAGGUGAUGGGAGUAGGUAGUAGAAGGUACGAGGA [JR_Exclu3_Sub065] (puzzle: Exclusion 3) , please.
# output 108

# input Would you kindly share the measured apparent KD of MS2 coat protein for UAUCCACAUGAGGAUCACCCAUGUGAGGAUAUGUCCAUAUUCGGCAAAUCGGAUAUGGACAGAAGGCACACCGG [JR_Exclusion1_Sub011] (puzzle: Exclusion 1) ?
# output 35.4

# input // lookup apparent KD of MS2 coat protein for CUGGUCCGAGGAUAUAUUAAGUGAUACAUGAGGAUCACCCAUGUAAUUUAAUGGAAAUAAAUAGAAGGCGGACUAG [Mat - Exclusion 5 - JL mod - D51] (puzzle: Exclusion 5)
# output 65.3

# input If you can, please state the reported apparent KD of MS2 coat protein value of CUCAUGUGAGGAUAUCAGUAGUGAUACGAUAGUAUUACUGCUGAGAAGGUACAUGAGGAUCACCCAUGUUCCUC [Exclusion 4 - Mod Omei Ex4 344 mod 4 v.3] (puzzle: Exclusion 4) .
# output 26.9

# input Which value of apparent KD of MS2 coat protein has been reported for UGUACUAUGCGAGCUGACUUGCGUAGUGCAGCAGGUGUUACAUGAGGAUCACCCAUGUCCUCAUUUGCUCGUCUUAU [SL-sv3-2.04 JL mod] (puzzle: Sensor v3, turn-off variant 2) in the records?
# output 231

# input // query apparent KD of MS2 coat protein value for entry GGUUAUUGCAAGGAUAUGCUUAUUUGAGAAAUUGCAGAAGGUGCAACAUGAGGAUCACCCAUGUUGGAUGGGUU [JR_E6_Sub016] (puzzle: Exclusion 6)
# output 60.7

# input Bench note: what apparent KD of MS2 coat protein did GAUAGAGAGCAGGAUAUCUUGGGUAAGUAUCAUAGAGAAGGGCUCACAUGAGGAUCACCCAUGUGGUCCAAGAU [Dibira] (puzzle: Exclusion 6) show?
# output 13

# input Requested read-out: apparent KD of MS2 coat protein. Entry: AGUACUAACACGCCAGUGUUAGUACAAUAAGCUUGUGAAACAUGAGGAUCACCCAUGUCCUCAUAAGCUCGUCUUAU [salish99_TOv2_r3_028] (puzzle: Sensor v3, turn-off variant 2)
# output 677

# input Requested field: apparent KD of MS2 coat protein. Item: UCAAGCUUUAAGCGUGUGAACAUGAGGAUCACCCAUGUAUUUUAGGUAAUAAGUUCAAUUAUGUAUUCUCGUCUUAU [JR_SWV3TOV1_Sub095] (puzzle: Sensor v3, turn-off variant 1)
# output 37.4

Value source: the supplement of paper PMC9170038
